All figures here come from patent US10233198B2.

test system: normal rats; assay: Blood glucose in normal rats, transdermal; type: in vivo; details: baseline of the treatment group; no fasting
Each entry below carries its recorded Blood glucose, normal rats, Baseline.
Number in mmol/L, nothing else.

CC(=O)Oc1ccccc1C(=O)Oc1ccccc1C(=O)O.CCN(CC)CCOC(=O)c1ccccc1OC(=O)c1ccccc1OC(C)=O; 7.2
CC(=O)O.CCN(CC)CCOC(=O)c1ccccc1O [P-10, diethylaminoethyl salicylate.AcOH]; 6.8

Now turn to the next compound.
Tell me its Blood glucose, normal rats, Baseline on normal rats: "CC(=O)Nc1ccc(OC(=O)c2ccccc2OC(=O)CCCN(C)C)cc1.Cl"
6.8

====

test system: normal rats; experiment: Blood glucose in normal rats, transdermal; assay type: in vivo; conditions: baseline of the treatment group; no fasting
EXPERIMENTAL_ENDPOINT: Blood glucose, normal rats, Baseline (mmol/L)
Number in mmol/L, nothing else.

CC(=O)Oc1ccccc1C(=O)Oc1ccccc1C(=O)Oc1ccccc1C(=O)O.CCN(CC)CCOC(=O)c1ccccc1OC(=O)c1ccccc1OC(C)=O; 6.6
CC(=O)O.CCN(CC)CCOC(=O)c1ccccc1OC(=O)c1ccccc1O [P-9, diethylaminoethyl salicylsalicylate.AcOH]; 6.5
CC(=O)Oc1ccccc1C(=O)O.CCN(CC)CCOC(=O)c1ccccc1OC(C)=O; 6.4

Tell me its Blood glucose, normal rats, Baseline on normal rats: "CC(=O)Oc1ccc(-c2ccc(F)cc2F)cc1C(=O)O.CCN(CC)CCOC(=O)c1cc(-c2ccc(F)cc2F)ccc1OC(C)=O"
7.1
